What RP-LC retention time was measured for each of the following?
assay.name: gradient 5% acetonitrile 3 min, to 50% in 2 min, to 85% in 15 min, held 3 min, 100 µL/min
reported.conditions: column: Zorbax Extend-C18 2.1 x 50 mm; eluents: water / acetonitrile, 0.1% formic acid
Give bare numbers, in s.

# count of solved cases: 2
Cc1cc(N)n(-c2nc(C)nc3sc4c(c23)CCC(C)C4)n1 (stereo not given) : 857
O=C(NCC1CCCO1)C1CCCN(c2ncccc2-c2noc(C3CCC3)n2)C1 (stereo not given) : 770

Each compound below has a recorded value; state its RP-LC retention time.
1. COc1ccc(Cl)cc1NC(=O)CN1C(=O)NC2(CCCCC2)C1=O
2. Cc1ccc(-n2nc3c(=O)n(CC(=O)NC4CCCC4)nc(C)c3c2C)cc1
3. Cc1ccc(NC(=O)Cn2nc(C(=O)N3CCCC3)c3ccccc32)cc1
4. O=C(Nc1ccc(-c2nc3ccccc3o2)cc1)Nc1c(F)cccc1F

1: 831; 2: 795; 3: 850; 4: 870

Each compound below has a recorded value; state its RP-LC retention time.
1. CCn1ncc2ccc(C(N)=O)cc21
2. CCn1cc(S(=O)(=O)NCc2ccc(C)cc2)c2cccnc21
3. COC(=O)C1=CN(c2cc(C)cc(C)c2)c2ccccc2S1(=O)=O
4. CCOc1cc(-c2nc(C3CC(=O)N(c4ccc(F)c(Cl)c4)C3)no2)cc(OCC)c1OCC (stereo not given)

1: 599; 2: 900; 3: 943; 4: 1290
